System: MDA-MB-231 breast cancer cell line
Test: MTT anti-proliferative assay, MDA-MB-231
Assay type: cell-based
Conditions: Homo sapiens, MDA-MB-231, 48 h, mean ± S.E.M.
Readout type: IC50 (µM)

Known IC50 results, listed for orientation:
• COc1cc(C(OC(C)=O)N(/N=C(\C)c2ccc(Br)cc2)c2nc(-c3ccc(Cl)cc3)cs2)ccc1OC(C)=O (centres unmarked) [Compound 6b] = 77
• COc1cc(C(O)N(/N=C(\C)c2ccc(Br)cc2)c2nc(-c3ccc(Cl)cc3)cs2)ccc1O (centres unmarked) [Compound 5b] = 62.1
• Oc1ccc(/C=N/Nc2nc(-c3ccc(Cl)cc3)cs2)cc1 [Compound 3a] = 18.7
• CC(=O)Nc1nc(-c2ccc(Cl)cc2)cs1 [Compound 4] = 12.2
• C/C(=N\N(c1nc(-c2ccc(Cl)cc2)cs1)C(O)c1ccc(O)cc1)c1ccc(Br)cc1 (centres unmarked) [Compound 5a] = 20.7

P = C/C(=N\Nc1nc(-c2ccc(Cl)cc2)cs1)c1ccc(Br)cc1 [Compound 3b]
Q = C/C(=N\Nc1nc(-c2ccc(Br)cc2)cs1)c1ccccc1O [Compound 3c]
Short answer wanted: higher IC50, P or Q ? Choose, then provide that item's label.
P
(P: 36.8 µM, Q: 17.1 µM)

----------
Tested on: epithelial breast cell line MCF-10A
Assay: MTT cytotoxicity assay, epithelial breast cells MCF-10A
Format: cell-based
Settings: Homo sapiens, 48 h, mean ± S.E.M.
Readout type: IC50 (µM)
Reply numerically in µM, unit not repeated.

Can you share its IC50? I mean this compound: CC(=O)Nc1nc(-c2ccc(Cl)cc2)cs1 [Compound 4]
36.8

----------
Target: human VEGFR-2/KDR (Homo sapiens, UniProt P35968)
Sequence (P35968 20-1356): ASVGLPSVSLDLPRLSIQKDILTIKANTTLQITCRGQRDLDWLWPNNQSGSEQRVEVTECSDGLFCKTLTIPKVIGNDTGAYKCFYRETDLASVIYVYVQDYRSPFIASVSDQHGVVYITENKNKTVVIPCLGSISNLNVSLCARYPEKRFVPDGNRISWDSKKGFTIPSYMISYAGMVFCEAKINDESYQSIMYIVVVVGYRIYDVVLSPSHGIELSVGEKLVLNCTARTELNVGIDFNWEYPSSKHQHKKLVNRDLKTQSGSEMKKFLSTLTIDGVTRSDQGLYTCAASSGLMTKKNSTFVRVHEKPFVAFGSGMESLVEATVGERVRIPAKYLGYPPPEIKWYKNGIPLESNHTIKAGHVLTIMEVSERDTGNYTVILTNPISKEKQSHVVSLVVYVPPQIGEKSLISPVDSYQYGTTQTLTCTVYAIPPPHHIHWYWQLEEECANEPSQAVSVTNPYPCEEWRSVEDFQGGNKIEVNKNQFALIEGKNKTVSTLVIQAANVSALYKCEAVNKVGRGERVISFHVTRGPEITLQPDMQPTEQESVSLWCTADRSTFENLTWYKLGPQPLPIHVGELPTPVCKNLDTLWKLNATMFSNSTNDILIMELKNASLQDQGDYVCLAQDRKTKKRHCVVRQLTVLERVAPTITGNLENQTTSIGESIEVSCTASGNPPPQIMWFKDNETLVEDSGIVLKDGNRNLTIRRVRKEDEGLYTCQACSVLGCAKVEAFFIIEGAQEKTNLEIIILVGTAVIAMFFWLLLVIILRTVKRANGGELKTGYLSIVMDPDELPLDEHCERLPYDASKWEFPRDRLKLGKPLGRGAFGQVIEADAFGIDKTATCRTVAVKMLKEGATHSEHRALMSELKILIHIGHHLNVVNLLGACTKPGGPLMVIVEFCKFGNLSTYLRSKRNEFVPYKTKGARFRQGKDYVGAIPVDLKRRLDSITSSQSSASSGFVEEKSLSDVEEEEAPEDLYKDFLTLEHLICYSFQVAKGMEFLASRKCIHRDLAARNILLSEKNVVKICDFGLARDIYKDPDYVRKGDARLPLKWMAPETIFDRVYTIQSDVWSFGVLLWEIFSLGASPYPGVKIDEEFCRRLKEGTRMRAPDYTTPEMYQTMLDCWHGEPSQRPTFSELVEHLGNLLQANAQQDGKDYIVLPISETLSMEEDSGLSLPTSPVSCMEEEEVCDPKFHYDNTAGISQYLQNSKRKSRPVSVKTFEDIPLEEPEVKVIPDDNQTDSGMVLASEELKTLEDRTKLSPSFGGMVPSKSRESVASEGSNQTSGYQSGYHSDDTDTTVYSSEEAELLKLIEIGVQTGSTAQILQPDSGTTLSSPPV
Experiment: VEGFR-2 inhibitory activity (VEGFR-2/KDR ELISA kit)
Readout type: pIC50
On this scale, pIC50 is minus log10 of a concentration expressed in M (mol/L).

Can you share its pIC50? I mean this compound: `C/C(=N\Nc1nc(-c2ccc(Br)cc2)cs1)c1ccccc1O`
6.60
